- Experimental protocol: Inhibition of recombinant galectin 1 in human O type red blood cells by hemagglutinination assay
Observed property: IC50

Give its IC50 value. Item: `OC[C@H]1O[C@@H](C/C=C/c2ccccc2)[C@H](O)[C@@H](O)[C@H]1O` > 5 mM

Quick one: IC50 of `C/C=C/[C@@H]1O[C@H](CO)[C@H](O)[C@H](O)[C@H]1O` ? > 5 mM

Kindly review the next compound as well.
Which measured IC50 value corresponds to `OC[C@@H]1O[C@H](n2cc(CS[C@@H]3O[C@H](CO)[C@H](O)[C@H](O)[C@H]3O)nn2)[C@@H](O)[C@H](O)[C@@H]1O` ? > 5 mM

Values were extracted from BindingDB's records for doi:10.1016/j.bmc.2008.06.044.
